Each record here notes measured normalized growth.
assay: chemical genetic growth profiling, strain panel (AID 1159580);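 further: tested at 20 µM; growth read once vehicle control cultures reached saturation at 30 °C; 1 = growth at the plate median or of vehicle wells; lower values mean less growth of the strain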; settings: S. cerevisiae deletion strains, growth OD, locus YLR418C, strain cdc73, active compounds read low
Among all 5,500 compounds or so, about 2,000 (36%) were called active. Inconclusive results (about 18%) are left out. The list shows a part of the results. Where a SMILES comes first, the peptide text is derived from it. [ ]: non-standard residue; d: D form. Orn = NCCC[CH](N)C(=O)O

# input molecule: NC(N)=NC(N)=Nc1ccccc1 ; wanted: its normalized growth
0.951 (inactive)

# input molecule: COc1cc2c(cc1OC)[C@@H]1C(=O)c3ccc4c(c3O[C@@H]1CO2)CC(C(C)C)O4 (stereo partly drawn) ; wanted: its normalized growth
0.921 (inactive)

# input molecule: CCC1C(=O)OCC1Cc1cncn1C (stereo not drawn) ; wanted: its normalized growth
1.02 (inactive)

# input molecule: C=C(C)[C@H]1Cc2c(ccc3c2O[C@@H]2COc4cc(OC)c(OC)cc4[C@@H]2C3=O)O1 ; wanted: its normalized growth
0.917 (inactive)

# input molecule: COc1c2c(cc3c1OCO3)C13C=C[C@H](OC)CC1N(C2)CC3O (stereo partly drawn) ; wanted: its normalized growth
1.01 (inactive)

# input molecule: O=C(OC[C@H]1O[C@H](OC(=O)c2cc(O)c(O)c(OC(=O)c3cc(O)c(O)c(O)c3)c2)[C@H](OC(=O)c2cc(O)c(O)c(OC(=O)c3cc(O)c(O)c(O)c3)c2)[C@@H](OC(=O)c2cc(O)c(O)c(OC(=O)c3cc(O)c(O)c(O)c3)c2)[C@@H]1OC(=O)c1cc(O)c(O)c(OC(=O)c2cc(O)c(O)c(O)c2)c1)c1cc(O)c(O)c(OC(=O)c2cc(O)c(O)c(O)c2)c1 ; wanted: its normalized growth
0.159 (active)

---
# input molecule: COc1cc2c(cc1OC)-c1c(oc3c4c(ccc3c1=O)OC(C(C)C)C4)CO2 (stereo not drawn) ; wanted: its normalized growth
0.981 (inactive)

# input molecule: CC1=NN(c2ccccc2)C(=O)C1 ; wanted: its normalized growth
0.78 (active)

# input molecule: O=C(CCBr)N1CCN(C(=O)CCBr)CC1 ; wanted: its normalized growth
1.01 (inactive)

# input molecule: CC(C)CC1NC(=O)C(CCCN)NC(=O)C(C(C)C)NC(=O)C2CCCN2C(=O)C(Cc2ccccc2)NC(=O)C(CC(C)C)NC(=O)C(CCCN)NC(=O)C(C(C)C)NC(=O)C2CCCN2C(=O)C(Cc2ccccc2)NC1=O (stereo not drawn) (cyclo(FPV[Orn]LFPV[Orn]L); configuration not given here) ; wanted: its normalized growth
0.932 (inactive)

# input molecule: CC1(C)C(=O)[C@@H]2O[C@@H]2[C@@]2(C)C1CC(=O)[C@]1(C)C2CC[C@@]2(C)[C@H](c3ccoc3)OC(=O)[C@H]3O[C@]321 (stereo partly drawn) ; wanted: its normalized growth
0.904 (inactive)

# input molecule: c1ccc([C@H]2CN3CCSC3=N2)cc1 ; wanted: its normalized growth
0.984 (inactive)

# input molecule: OCCN1CCN(CCCN2c3ccccc3Sc3ccc(C(F)(F)F)cc32)CC1 ; wanted: its normalized growth
0.76 (active)

# input molecule: Cc1cc(C(C)(C)C)c(O)c(C)c1CC1=NCCN1 ; wanted: its normalized growth
1.02 (inactive)

# input molecule: CCNc1nc(Cl)nc(NCC)n1 ; wanted: its normalized growth
0.985 (inactive)

# input molecule: CCCCCCCCCCCCCCCCCCOCC(O)CO (stereo not drawn) ; wanted: its normalized growth
0.976 (inactive)

# input molecule: Cc1cc(C(C)(C)C)cc(C)c1CC1=NCCN1 ; wanted: its normalized growth
0.995 (inactive)

# input molecule: O=C(O)c1cc([N+](=O)[O-])ccc1NCCCc1ccccc1 ; wanted: its normalized growth
0.901 (inactive)

* * *

assay: chemical genetic growth profiling, strain panel (AID 1159580);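 further: tested at 20 µM; growth read once vehicle control cultures reached saturation at 30 °C; 1 = growth at the plate median or of vehicle wells; lower values mean less growth of the strain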; conditions: S. cerevisiae deletion strains, growth OD, locus YDR137W, strain rgp1
Among all 5,500 compounds or so, about 2,000 (36%) were called active. Another 18% or so got no clear call; they are omitted. No stated cut-off is given here; in the data, active means normalized growth mostly below about 0.91 (no sharp cut-off); inconclusive means no clear call, values can overlap the other calls; inactive means mostly above about 0.92. This is one part of the list.
Valid outcomes are listed here; reply with one: 1 (yes) = active, 0 (no) = inactive

Solved entries:
Outcome logged for O=C(O)c1cc(=O)c2cccc(O)c2[nH]1 in this assay:
0 (no)

Outcome logged for COc1cc(/C=C/C(=O)N2CCC=CC2=O)cc(OC)c1OC in this assay:
0 (no)

Outcome logged for CCOc1cccc(C(=O)c2ccc(O)c(O)c2O)c1 in this assay:
1 (yes)

Outcome logged for CC1(C)S[C@@H]2[C@H](NC(=O)[C@H](C(=O)O)c3cccs3)C(=O)N2[C@H]1C(=O)O in this assay:
0 (no)

Outcome logged for C[C@]12CCC3C(CC[C@H]4C[C@H](OS(=O)(=O)O)CC[C@]34C)C1CCC2=O (stereo partly drawn) in this assay:
0 (no)

---
Outcome logged for CC(=O)OC1CCC2(C)C3CC(=O)C4(C)C(CC5OC6(CCC(C)CO6)[C@@H](C)C54)C3CC[C@H]2C1 (stereo partly drawn) in this assay:
0 (no)

Outcome logged for C#CC1(O)CCC2C3CCC4=CC(=O)CCC4(C)C3CCC21C (stereo not drawn) in this assay:
1 (yes)

Outcome logged for Cc1onc(-c2ccccc2)c1C(=O)NC1C(=O)N2[C@@H]1SC(C)(C)[C@@H]2C(=O)O (stereo partly drawn) in this assay:
0 (no)

* * *

test: chemical genetic growth profiling, strain panel (AID 1159580);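 further: tested at 20 µM; growth read once vehicle control cultures reached saturation at 30 °C; 1 = growth at the plate median or of vehicle wells; lower values mean less growth of the strain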; settings: S. cerevisiae deletion strains, growth OD, locus YDL192W, strain arf1, active compounds read low
The campaign covered roughly 5,500 compounds. About 2,000 (36%) were called active. Roughly 18% stayed inconclusive and do not appear here. The list shows a part of the results.
Result type: normalized growth
Lab note: write the figure by itself, no unit.

As a guide, the following entries are already answered.
# input molecule: C[C@]12CCC(=O)C=C1CCC1C2C(=O)C[C@@]2(C)C1CC[C@]2(O)C(=O)CO (stereo not given in full) ; wanted: its normalized growth
1.02

# input molecule: C=C(C)[C@H]1Cc2c(ccc3c2O[C@@H]2COc4cc(OC)c(OC)cc4[C@@H]2C3=O)O1 ; wanted: its normalized growth
1.02

# input molecule: C#CC1(O)CCC2C3CCC4=CC(=O)CCC4(C)C3CCC21C (stereo not given) ; wanted: its normalized growth
0.98

---
# input molecule: NC(=O)N1c2ccccc2C=Cc2ccccc21 ; wanted: its normalized growth
0.996

# input molecule: O=c1c(O)c(-c2ccc(O)c(O)c2)oc2cc(O)ccc12 ; wanted: its normalized growth
0.946

# input molecule: COc1cc2c(cc1OC)-c1c(oc3c4c(ccc3c1=O)OC(C(C)C)C4)CO2 (stereo not given) ; wanted: its normalized growth
1.01

# input molecule: CC(=O)OCC(=O)[C@@]1(O)CCC2C3CCC4=CC(=O)CC[C@]4(C)C3[C@@H](O)C[C@@]21C (stereo not given in full) ; wanted: its normalized growth
1

# input molecule: O=c1[nH]cnc2c1ncn2C1O[C@H](CO)[C@@H](O)[C@H]1O (stereo not given in full) ; wanted: its normalized growth
1.05

# input molecule: COc1cc2c(cc1OC)[C@@H]1C(=O)c3ccc4c(c3O[C@@H]1CO2)CC(C(C)C)O4 (stereo not given in full) ; wanted: its normalized growth
1.01

# input molecule: CC1=CC2C(C(C)C)CCC(C)(O)C2CC1 (stereo not given) ; wanted: its normalized growth
0.934

* * *

Each record here notes measured normalized growth.
experiment: chemical genetic growth profiling, strain panel (AID 1159580);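 further: tested at 20 µM; growth read once vehicle control cultures reached saturation at 30 °C; 1 = growth at the plate median or of vehicle wells; lower values mean less growth of the strain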; settings: S. cerevisiae deletion strains, growth OD, locus YLR058C, strain SHM2, active compounds read low
The whole screen tested about 5,500 compounds, of which about 2,000 (36%) were called active. About 18% were inconclusive and are not listed. The list shows a part of the results. *1 amine or outer side, *2 acyl side, *3 side chain or, on linkers, in order; H or OH if unused. Where a SMILES comes first, the peptide text is derived from it. Bridges are numbered along the chain shown (N, C = ends). [ ]: non-standard residue; d: D form. The star is where a group is joined. ξ: configuration not given here. ΔAla(E,3-NHCONH2) = NC(=O)N/C=C(/N)C(=O)O; X2 = NC1=NCCC(C(N[*:1])C(=O)[*:2])N1; ξβ3hOrn = NCCCC(N)CC(=O)*; Dap = NC[CH](N)C(=O)O
Lab note: write the figure by itself, no unit.

# input compound: O=C(OC[C@H]1O[C@H](OC(=O)c2cc(O)c(O)c(OC(=O)c3cc(O)c(O)c(O)c3)c2)[C@H](OC(=O)c2cc(O)c(O)c(OC(=O)c3cc(O)c(O)c(O)c3)c2)[C@@H](OC(=O)c2cc(O)c(O)c(OC(=O)c3cc(O)c(O)c(O)c3)c2)[C@@H]1OC(=O)c1cc(O)c(O)c(OC(=O)c2cc(O)c(O)c(O)c2)c1)c1cc(O)c(O)c(OC(=O)c2cc(O)c(O)c(O)c2)c1 ; wanted: its normalized growth
0.0679

---
# input compound: COc1cccc(O)c1O ; wanted: its normalized growth
0.995

# input compound: CCCCc1nc(Cl)c(CO)n1Cc1ccc(-c2ccccc2-c2nn[nH]n2)cc1 ; wanted: its normalized growth
0.997

# input compound: CC(=O)O[C@@H]1CC[C@]2(C)C3CC[C@]4(C)C(=O)CCC4C3CC[C@H]2C1 (some centres not stated) ; wanted: its normalized growth
0.96

# input compound: CC(=O)OC1CCC2(C)C3CC(=O)C4(C)C(CC5OC6(CCC(C)CO6)[C@@H](C)C54)C3CC[C@H]2C1 (some centres not stated) ; wanted: its normalized growth
0.982

# input compound: NCCCC(N)CC(=O)NCC1NC(=O)C(CO)NC(=O)C(N)CNC(=O)C(C2CCN=C(N)N2)NC(=O)/C(=C\NC(N)=O)NC1=O (stereo not drawn) (H-[Dap]S[Dap](ξβ3hOrn)[ΔAla(E,3-NHCONH2)][X2]; lactam 1-C; configuration not given here) ; wanted: its normalized growth
1.01

# input compound: CC(=O)O[C@H]1CC[C@]2(C)C3CC(=O)[C@]4(C)C(C(C)=O)=CCC4C3CC[C@H]2C1 (some centres not stated) ; wanted: its normalized growth
1.02
